Origin of values: PubChem BioAssay (NCI)

# System: UACC-62 melanoma
# test_summary: NCI tumour cell line growth inhibition, 48 h
Reported GI50 values follow for various compounds

query: Report its GI50 with UACC-62 melanoma as the test system: CC(C)(C)CC(C)(C)Cc1ccc(OCCOCC[N+](C)(C)Cc2ccccc2)cc1
result: 1260 nM

query: Give GI50 for C=C1C(=O)O[C@H]2[C@H]1CC/C(COC(=O)CCC(=O)OC/C1=C/CC[C@@]3(C)O[C@H]3[C@H]3OC(=O)C(=C)[C@@H]3CC1)=C\CC[C@@]1(C)O[C@@H]21 tested on UACC-62 melanoma.
result: 1860 nM

query: Name the recorded GI50 of Cc1cc(S(N)(=O)=O)c(S/C(=N\NS(=O)(=O)c2ccc(Cl)cc2)c2ccc(Cl)cc2)cc1Cl , assay system UACC-62 melanoma.
result: > 100000 nM

query: Specify GI50 for Fc1ccc(Nc2nc(Nc3ccc(-c4nc5ccccc5[nH]4)cc3)nc(N3CCCC3)n2)cc1 , system UACC-62 melanoma.
result: 1770 nM

query: Answer briefly: GI50 recorded on UACC-62 melanoma for CCCCCCCCSC1=CC(=O)C(OC)=C(OC)C1=O
result: 3500 nM

====

# Tested on: PC-3 prostate
# test_summary: NCI tumour cell line growth inhibition, 48 h
property_label: TGI

CCOC(=O)c1ccc(N=C/C=C(\Nc2ccc(C(=O)OCC)cc2)c2ccc3ccccc3c2)cc1 : > 100 µM
CC1(C)COC(c2cccc(C3=NC(C)(C)CO3)c2)=N1 : > 100 µM

query: Give a short answer stating reported TGI for COc1ccc(Cc2ccccc2C(=O)O)c2ccccc12 .
result: > 100 µM

====

# System: HOP-92 NSCLC
# test_summary: NCI tumour cell line growth inhibition, 48 h
property_label: GI50

# count of solved cases: 6
Cc1cc(S(N)(=O)=O)c(S/C(=N\NS(=O)(=O)c2ccc(Cl)cc2)c2ccc(Cl)cc2)cc1Cl : > 100000 nM
CNCCNc1nc2ccccc2c2c(=O)c3cccc(OC)c3sc12 : 1130 nM
CO/N=C1/c2cc(OC)ccc2-c2c(NOC)nc3ccccc3c21 : 16000 nM
Cc1c2c(nn1-c1ccc(S/N=C3\SCC(=O)CN3c3ccccc3)cc1)-c1ccccc1CC2 : > 50000 nM
COc1ccc2c(CNCCCCO)cc3cc4c(cc3c2c1)OCO4 : 598 nM
Cn1cccc1-c1cc(-c2ccc(Br)cc2)nc(N)c1C#N : 47800 nM

query: Determine its reported GI50: COC(=O)c1ccc2c(c1)nc(-c1ccc(Cl)cc1)n2-c1cc(C(C)(C)C)[nH]n1
result: 1150 nM

query: Please look at this compound and report its GI50: N#Cc1c2ccccc2c2nnc3cc(Cl)c(Cl)cc3n12
result: 42000 nM

query: Fill in reported GI50 for this entry: Cn1c(=O)c(F)c(Nc2ccc(I)cc2F)c2c(=O)n(C[C@@H](O)CO)cnc21
result: < 10 nM

====

# Tested on: SK-MEL-28 melanoma
# test_summary: NCI tumour cell line growth inhibition, 48 h
property_label: TGI (µM)
Entry rule: numbers only, all in µM.

OC1(c2ccc(Cl)cc2)c2ccccc2C2=Nc3ccccc3CN21 (stereo not given) : 98.3
CCOc1ccc2c(c1)/C(=C\C=C\C1CC(C)C3CC(OCC)CCC3N1CC)CC(C)N2CC (stereo not given) : 2.86
COC(=O)c1ccc(/C=C/C2=CC(=O)C=CC2=O)cc1 : 50.8

query: Supply recorded TGI for Cc1ccc(S(=O)/C=C(\NC(=O)OCc2ccccc2)C(F)(F)F)cc1 (stereo not given) here.
result: 72

====

# Test system: MDA-MB-231 breast
# test_summary: NCI tumour cell line growth inhibition, 48 h
GI50 values for the compounds below.

Cn1c2ccccc2c2c3c(c4c5ccccc5n(CCCCCC#N)c4c21)C(=O)N(O)C3=O : 2340 nM
O=Nc1c(-c2cccc([N+](=O)[O-])c2)nc2ncccn12 : 16400 nM

query: Please respond with reported GI50 (system MDA-MB-231 breast) for O=C1NC(=NCCc2ccccc2Cl)S/C1=C\c1ccc2ncccc2c1 .
result: 10300 nM

query: Find the measured GI50 of CC1=C(C)C(=O)C(C(C)C2=C(C)C(=O)C(C)=C(C)C2=O)=C(C)C1=O with MDA-MB-231 breast as test system.
result: 13800 nM

query: // output GI50; input COc1ccccc1Nc1nc(-c2cc3cccc(C(F)(F)F)c3oc2=O)cs1 ; system MDA-MB-231 breast
result: 516 nM

query: # return GI50 for COc1cc2c(/C=C3\C(=O)Nc4ccc(Br)cc43)c(Cl)n(C)c2cc1C , test system: MDA-MB-231 breast
result: 2630 nM

query: For MDA-MB-231 breast, give the measured GI50 of the entry Fc1ccc(Nc2nc(Nc3ccc(-c4nc5ccccc5[nH]4)cc3)nc(N3CCCC3)n2)cc1
result: 1870 nM

query: Write down measured GI50 (MDA-MB-231 breast) for this compound. O=C(CCN1CCCC1)Nc1ccc2c(NCCCCc3ccccc3)c3ccccc3nc2c1
result: 1150 nM

query: State, for MDA-MB-231 breast, measured GI50 of the compound listed here: CO/N=C1/c2cc(OC)ccc2-c2c(NOC)nc3ccccc3c21
result: 12600 nM

====

# System: SF-295 CNS
# test_summary: NCI tumour cell line growth inhibition, 48 h
Quick list: TGI per entry.
Answer in µM, number only, no unit symbol.

Recorded results for 2 compounds are shown here.
CCN(CCCl)CCNc1c2ccccc2nc2ccc(OC)cc12 : 4
O=c1c(-c2ccccc2)c[nH]c2cc([N+](=O)[O-])c(/C(Cl)=C/c3ccccc3)cc12 : 26.5

# input for lookup
query: Provide TGI value for the following compound: CC1OC(OC2C(CO)OC(O[C@H]3CC[C@@]4(C)C(=CC[C@H]5[C@@H]6C[C@@H]7O[C@](O)(CC[C@@H](C)COC8OC(CO)C(O)C(O)C8O)[C@@H](C)[C@@H]7[C@@]6(C)CC[C@@H]54)C3)C(OC3OC(C)C(O)C(O)C3O)C2O)C(O)C(O)C1O (some centres not stated)
result: 11.8

====

Recorded TGI, one value per entry.
# Test system: HCT-116 colon
# test_summary: NCI tumour cell line growth inhibition, 48 h

Consider the following illustrative entries.
CO/N=C1/c2cc(OC)ccc2-c2c(NOC)nc3ccccc3c21 : 49.2 µM
COc1cc2c(/C=C3\C(=O)Nc4ccc(Br)cc43)c(Cl)n(C)c2cc1C : 7.17 µM
CCCCCOP(=O)(OCCCCC)C(NC(C)=O)(C(=O)OCC)C(F)(F)F (stereo not given) : > 100 µM
CCOC(=O)[C@H]1Nc2ccc(O)cc2C2c3ccccc3CC21 (stereo not given in full) : > 100 µM
CN(C)CCn1cc(-c2ccc3c(Nc4ccc(CC(=O)Nc5cccc(F)c5)cc4)ncnc3c2)cn1 : 2.72 µM
NCCOc1ccccn1 : > 100 µM
Cc1c2cc[n+](C)cc2c(COC2OC(CO)C(O)C2O)c2c3ccccc3n(C)c12 (stereo not given) : > 100 µM
CCN1C(=O)N(c2c(F)c(OC)cc(OC)c2F)Cc2cnc3[nH]c(CN4CCOCC4)cc3c21 : 19.4 µM

query: Lab note: record TGI of NC12c3c4cccc3Oc3cccc(c31)Oc1cccc(c12)O4 tested on HCT-116 colon.
result: > 50 µM

query: Name the recorded TGI of CC1=C(C(=O)Nc2ccc(F)c(Cl)c2)C(c2cccc(Cl)c2)NC(=O)N1 (stereo not given) , assay system HCT-116 colon.
result: 27.9 µM

query: Please indicate recorded TGI of Cc1c2cc[n+](C)cc2c(C)c2c1[nH]c1ccc(O)cc12 measured with HCT-116 colon.
result: > 91.6 µM

query: System HCT-116 colon. Read-out TGI. Item Cn1c2ccccc2c2c3c(c4c5ccccc5n(CCCCCC#N)c4c21)C(=O)N(O)C3=O . Report value.
result: 4.14 µM

query: Please report the measured TGI for CC(CN(CP(=O)([O-])[O-])CP(=O)([O-])[O-])N(CP(=O)([O-])[O-])CP(=O)([O-])[O-].N[C@@H]1CCCC[C@@H]1N.[Pt+2] (stereo not given) tested on HCT-116 colon.
result: > 100 µM

query: Report the value of TGI obtained on HCT-116 colon for C#CCNC(Cc1ccccc1)C(=O)O (stereo not given) .
result: > 100 µM

query: Specify the recorded TGI for CCCCCCCCCCCCCC(=O)OCC1OC(OC)C(NC(=O)N(CCCl)N=O)C(O)C1O (stereo not given) , system: HCT-116 colon.
result: 38.2 µM

query: Report TGI under test system HCT-116 colon for O=[N+]([O-])c1ccc2[nH]cc(-c3c4ccccc4cc4[nH]c5ccc([N+](=O)[O-])cc5c34)c2c1 .
result: 5 µM

query: State measured TGI of the compound CC(C)(C)c1cc(C(O)(C(F)(F)F)C(F)(F)F)c2c(c1)C(C(F)(F)F)(C(F)(F)F)OC(c1ccccc1)(C(C)(C)C)N2 (stereo not given) with HCT-116 colon.
result: 13.2 µM

query: With HCT-116 colon as the test system, provide measured TGI for this compound: CCN(CCCl)CCNc1c2ccccc2nc2ccc(OC)cc12
result: 2.1 µM

query: Report TGI under test system HCT-116 colon for C=C(C)C1CC2=C(C(=O)OC)C=C(O2)C(C(=C)C)[C@@H]2OC(=O)/C(=C\C1O)[C@H]2N(C)C (stereo not given in full) .
result: 27.7 µM

query: Please respond with reported TGI (system HCT-116 colon) for CC(=O)OC1COC(N2C(=O)C(=O)c3cc(Br)c([N+](=O)[O-])cc32)C(OC(C)=O)C1OC(C)=O (stereo not given) .
result: > 100 µM

query: Enter TGI (test system HCT-116 colon) for O=C1NC(=NCc2ccccn2)S/C1=C\c1ccc2ncccc2c1
result: > 25 µM

query: Give TGI; test system HCT-116 colon; compound CCOC(=O)Nc1ccc(S(=O)(=O)Nc2ccc(Br)cc2)cc1
result: > 100 µM
